src = patent US10231954B2

Biological target: PKCγ (Homo sapiens, UniProt P05129)
Assay: Kinase profiling PKCγ
Format: biochemical
Settings: 100 micromolar inhibitor concentration; 100 is no change
quantity: residual kinase activity, PKCγ
Form field (numeric): enter value without unit.

QUERY: // query residual kinase activity, PKCγ value for entry CC(=O)NC(C)C(=O)Nc1nc2ccc(C(F)(F)F)cc2s1 (stereo not shown)
RESULT: 87

QUERY: // query residual kinase activity, PKCγ value for entry CC(=O)Nc1ccccc1C(=O)Nc1nc2ccc(O)cc2s1
RESULT: 44

QUERY: // query residual kinase activity, PKCγ value for entry CC(=O)Nc1cccc(C(=O)Nc2nc3ccc(O)cc3s2)c1
RESULT: 86

QUERY: // query residual kinase activity, PKCγ value for entry COc1ccc2sc(NC(=O)c3ccc(NC(C)=O)cc3)nc2c1
RESULT: 94

QUERY: // query residual kinase activity, PKCγ value for entry CC(=O)Nc1nc2ccccc2s1
RESULT: 94

QUERY: // query residual kinase activity, PKCγ value for entry O=C(Nc1nc2ccc(O)cc2s1)c1ccncc1
RESULT: 93

QUERY: // query residual kinase activity, PKCγ value for entry O=C(Nc1nc2ccc(O)cc2s1)c1cccnc1
RESULT: 73

QUERY: // query residual kinase activity, PKCγ value for entry O=C(Nc1nc2cc(O)ccc2s1)c1cccnc1
RESULT: 103

QUERY: // query residual kinase activity, PKCγ value for entry CC(=O)Nc1nc2cc(C)ccc2s1
RESULT: 106

QUERY: // query residual kinase activity, PKCγ value for entry O=C(Nc1nc2cc(O)ccc2s1)c1ccccn1
RESULT: 141
